biological target: Ode-UNC-29:Ode-UNC-63:Ode-UNC-38 (Oesophagostomum dentatum, UniProt E5KIX9+V5J2B2+V5J336); construct: co-injected with Haemonchus contortus ancillary factors Hco-ric-3, Hco-unc-50, Hco-unc-74; clones from earlier work of the authors; assay: two-electrode voltage clamp, Xenopus oocytes, agonist concentration-response, Hill fit
Sequence (V5J2B2 21-497): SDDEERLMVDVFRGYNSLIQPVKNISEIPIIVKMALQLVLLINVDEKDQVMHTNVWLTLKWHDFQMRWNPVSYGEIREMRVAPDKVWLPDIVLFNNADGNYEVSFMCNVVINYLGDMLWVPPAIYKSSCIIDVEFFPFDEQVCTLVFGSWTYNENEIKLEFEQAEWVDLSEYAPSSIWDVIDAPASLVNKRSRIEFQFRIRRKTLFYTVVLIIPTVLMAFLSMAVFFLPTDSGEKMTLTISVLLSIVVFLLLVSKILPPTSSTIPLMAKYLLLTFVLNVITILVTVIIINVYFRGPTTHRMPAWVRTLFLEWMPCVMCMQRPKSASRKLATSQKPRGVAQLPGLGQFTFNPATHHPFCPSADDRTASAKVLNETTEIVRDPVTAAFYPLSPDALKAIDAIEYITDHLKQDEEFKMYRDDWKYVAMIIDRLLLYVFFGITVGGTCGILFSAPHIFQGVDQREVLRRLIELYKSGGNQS
Sequence (E5KIX9 22-507): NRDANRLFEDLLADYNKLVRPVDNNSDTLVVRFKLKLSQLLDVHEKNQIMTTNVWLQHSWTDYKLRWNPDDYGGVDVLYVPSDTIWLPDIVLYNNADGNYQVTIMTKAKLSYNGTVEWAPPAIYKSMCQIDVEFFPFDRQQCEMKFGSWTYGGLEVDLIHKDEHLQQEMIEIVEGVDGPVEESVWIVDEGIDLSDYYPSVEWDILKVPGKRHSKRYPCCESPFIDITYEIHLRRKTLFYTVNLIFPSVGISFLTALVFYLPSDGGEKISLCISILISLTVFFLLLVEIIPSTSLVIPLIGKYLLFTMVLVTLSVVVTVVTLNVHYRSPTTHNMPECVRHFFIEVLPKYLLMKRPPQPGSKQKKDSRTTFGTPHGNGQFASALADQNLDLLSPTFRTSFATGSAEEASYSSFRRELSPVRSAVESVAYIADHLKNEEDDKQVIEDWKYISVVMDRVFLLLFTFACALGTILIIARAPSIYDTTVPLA
Sequence (V5J336 21-507): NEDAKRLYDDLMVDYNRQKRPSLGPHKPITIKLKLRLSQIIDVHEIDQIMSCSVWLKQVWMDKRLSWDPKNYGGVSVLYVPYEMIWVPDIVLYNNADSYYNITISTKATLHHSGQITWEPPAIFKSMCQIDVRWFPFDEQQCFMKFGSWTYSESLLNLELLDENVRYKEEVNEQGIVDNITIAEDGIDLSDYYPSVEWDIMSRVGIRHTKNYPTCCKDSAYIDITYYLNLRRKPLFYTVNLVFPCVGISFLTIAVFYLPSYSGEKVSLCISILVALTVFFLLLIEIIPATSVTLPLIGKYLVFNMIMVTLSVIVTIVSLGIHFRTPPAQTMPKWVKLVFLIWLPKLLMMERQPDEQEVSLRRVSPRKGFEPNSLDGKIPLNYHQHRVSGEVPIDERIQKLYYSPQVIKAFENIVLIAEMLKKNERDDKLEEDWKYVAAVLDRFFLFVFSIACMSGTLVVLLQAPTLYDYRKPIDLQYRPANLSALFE
Assign EC50 to each entry below.
Answers are plain numbers, in µM.

CC(=O)OCC[N+](C)(C)C	13

Moving on to another compound below.
Q: Report EC50, nothing else, for this compound: CN1CCCN=C1/C=C/c1cccs1
Ans: 0.4

Where these numbers come from: paper PMC4709073
